- target or system: T1, SARS-COV-2 RBD (SARS-COV-2, UniProt P0DTC2 319-539)
- T1 construct: also called WT RBD
- assay text: ELISA, RBD coated on plate
assay metric: EC50 (ng/mL)
One number for each entry, in ng/mL.

[[record]]
binder = "C1031 (antibody, V domains shown) VH: QLQLQESGPGLVKPSETLSLTCTVSGGSINTSTYYWGWIRQPPGKGLEWIGNIYYSGITYYNPSLKSRVTISVDTSKNQFSLKLRSVTAADTAVYYCARQHRFGSGSSELLWGQGTLVTVSS VL: QSALTQPPSASGSPGQSVTISCTGTSSDVGSYNYVSWYQQHPGKAPKLMIYEVTKRPSGVPDRFSGSKSGNTASLTVSGLQADDEADYYCSSYAGSSNLVFGGGTKLTV"
result_value = 7.23


Kindly review the next binder as well.
Query block: Dear colleague, I am looking for the recorded EC50 of the following binder: C946 (antibody, V domains shown) VH: QVQLVQSGAEVKKPGASVKVSCKASGYTFTNYYIHWVRQAPGQGLEWMGIINPDGDSTSYVQKFQGRVTMTRDTSTSTVYMELSSLRSEDTAVYYCARDLVFVPATSAMDVWGKGTTVTVSS VL: EIVLTQSPATLSLSPGERATLSCRASQSVSSYLAWYQQKPGQAPRLLIYDASNRATGIPARFSGSGSGTDFTLTISSLEPEDFAVYYCQQRSNWLFTFGPGTKVDIK
Result block: 3.82
